Test system: ChaGo-K-1
Experiment: relative viability (nuclei count vs DMSO), 5 days (fraction); higher = more cells survive
Details: first compound 0.253 µM
For each of the molecules below, state its relative viability.
Reply with the value as a number alone.

Request: GET /values?readout=relative viability&item= Oc1nc(-c2ccc(C(F)(F)F)cc2)nc2c1CSCC2 [XAV939] + CCNC(=O)c1noc(-c2cc(C(C)C)c(O)cc2O)c1-c1ccc(CN2CCOCC2)cc1 [Luminespib] (partner 0.01 µM)
Result: 0.384

Request: And then Oc1nc(-c2ccc(C(F)(F)F)cc2)nc2c1CSCC2 [XAV939] + Cc1nc(Nc2ncc(C(=O)Nc3c(C)cccc3Cl)s2)cc(N2CCN(CCO)CC2)n1 [Dasatinib] (partner 0.075 µM) , what is it?
Result: 0.639

Request: And then C=C1C(=O)O[C@@H](CCCCCCCC)[C@@H]1C(=O)O [C-75] + CC(=O)c1c(C)c2cnc(Nc3ccc(N4CCNCC4)cn3)nc2n(C2CCCC2)c1=O [Palbociclib] (partner 0.5 µM) , what is it?
Result: 0.894

Request: And then Oc1nc(-c2ccc(C(F)(F)F)cc2)nc2c1CSCC2 [XAV939] + O=C(c1cc(Cc2n[nH]c(=O)c3ccccc23)ccc1F)N1CCN(C(=O)C2CC2)CC1 [Olaparib] (partner 8 µM) , what is it?
Result: 0.392

Request: And then C=C1C(=O)O[C@@H](CCCCCCCC)[C@@H]1C(=O)O [C-75] + O=C(c1cc(Cc2n[nH]c(=O)c3ccccc23)ccc1F)N1CCN(C(=O)C2CC2)CC1 [Olaparib] (partner 8 µM) , what is it?
Result: 0.392

* * *

Test system: ChaGo-K-1
Experiment: relative viability (nuclei count vs DMSO), 5 days (fraction); higher = more cells survive
Conditions: first compound 0.8 µM
Class (required): determined from relative viability; valid ranges are lo = under 0.6, mid = from 0.6 up to 0.9, hi = 0.9 and over

Request: Tag the class for C=C1C(=O)O[C@@H](CCCCCCCC)[C@@H]1C(=O)O [C-75] + O=C(CCCCCCC(=O)Nc1ccccc1)NO [Vorinostat] (partner 1 µM)
Result: mid

Request: And then Oc1nc(-c2ccc(C(F)(F)F)cc2)nc2c1CSCC2 [XAV939] + Cc1cc(Nc2cc(N3CCN(C)CC3)nc(Sc3ccc(NC(=O)C4CC4)cc3)n2)n[nH]1 [Tozasertib] (partner 0.1 µM) , what is it?
Result: lo

Request: And then C=C1C(=O)O[C@@H](CCCCCCCC)[C@@H]1C(=O)O [C-75] + Nc1nc2[nH]cc(CCc3ccc(C(=O)N[C@@H](CCC(=O)O)C(=O)O)cc3)c2c(=O)[nH]1 [Pemetrexed] (partner 0.2 µM) , what is it?
Result: lo

Request: And then Oc1nc(-c2ccc(C(F)(F)F)cc2)nc2c1CSCC2 [XAV939] + C[C@@H](Oc1cc(-c2cnn(C3CCNCC3)c2)cnc1N)c1c(Cl)ccc(F)c1Cl [Crizotinib] (partner 1 µM) , what is it?
Result: hi

Request: And then Oc1nc(-c2ccc(C(F)(F)F)cc2)nc2c1CSCC2 [XAV939] + COc1cccc2cc(-c3nc([C@H]4CC[C@H](C(=O)O)CC4)n4ncnc(N)c34)[nH]c12 [OSI-027] (partner 0.5 µM) , what is it?
Result: lo

Request: And then Oc1nc(-c2ccc(C(F)(F)F)cc2)nc2c1CSCC2 [XAV939] + CS(=O)(=O)N1CCN(Cc2cc3nc(-c4cccc5[nH]ncc45)nc(N4CCOCC4)c3s2)CC1 [Pictilisib] (partner 1 µM) , what is it?
Result: mid

Request: And then C=C1C(=O)O[C@@H](CCCCCCCC)[C@@H]1C(=O)O [C-75] + C[C@@H](Oc1cc(-c2cnn(C3CCNCC3)c2)cnc1N)c1c(Cl)ccc(F)c1Cl [Crizotinib] (partner 1 µM) , what is it?
Result: hi

Request: And then C=C1C(=O)O[C@@H](CCCCCCCC)[C@@H]1C(=O)O [C-75] + CC1(C)CCC(c2ccc(Cl)cc2)=C(CN2CCN(c3ccc(C(=O)NS(=O)(=O)c4ccc(N[C@H](CCN5CCOCC5)CSc5ccccc5)c(S(=O)(=O)C(F)(F)F)c4)cc3)CC2)C1 [Navitoclax] (partner 0.5 µM) , what is it?
Result: mid

* * *

For each of the compounds below, state its relative viability.
Tested on: NCI-H460
Experiment: relative viability (nuclei count vs DMSO), 5 days (fraction); higher = more cells survive
Conditions: first compound 0.05 µM
Reply with the value as a number alone.

Request: GET /values?readout=relative viability&item= CC1(C)CCC(c2ccc(Cl)cc2)=C(CN2CCN(c3ccc(C(=O)NS(=O)(=O)c4ccc(N[C@H](CCN5CCOCC5)CSc5ccccc5)c(S(=O)(=O)C(F)(F)F)c4)cc3)CC2)C1 [Navitoclax] + Cc1cc(Nc2cc(N3CCN(C)CC3)nc(Sc3ccc(NC(=O)C4CC4)cc3)n2)n[nH]1 [Tozasertib] (partner 0.1 µM)
Result: 0.37

Request: And then CC1(C)CCC(c2ccc(Cl)cc2)=C(CN2CCN(c3ccc(C(=O)NS(=O)(=O)c4ccc(N[C@H](CCN5CCOCC5)CSc5ccccc5)c(S(=O)(=O)C(F)(F)F)c4)cc3)CC2)C1 [Navitoclax] + Nc1ncn([C@H]2C[C@H](O)[C@@H](CO)O2)c(=O)n1 [Decitabine] (partner 2 µM) , what is it?
Result: 0.234

Request: And then CC1(C)CCC(c2ccc(Cl)cc2)=C(CN2CCN(c3ccc(C(=O)NS(=O)(=O)c4ccc(N[C@H](CCN5CCOCC5)CSc5ccccc5)c(S(=O)(=O)C(F)(F)F)c4)cc3)CC2)C1 [Navitoclax] + O=C(CCCCCCC(=O)Nc1ccccc1)NO [Vorinostat] (partner 1 µM) , what is it?
Result: 0.561

* * *

For each of the compounds below, state its relative viability.
System: NCI-H2170
Assay: relative viability (nuclei count vs DMSO), 5 days (fraction); higher = more cells survive
Conditions: first compound 8 µM
Reply with the value as a number alone.

Request: Enter reported relative viability observed with NCI-H2170 for C=C1C(=O)O[C@@H](CCCCCCCC)[C@@H]1C(=O)O [C-75] + Cc1nc(NC(=O)N2CCC[C@H]2C(N)=O)sc1-c1ccnc(C(C)(C)C(F)(F)F)c1 [Alpelisib] (partner 2 µM)
Result: 0.713

Request: And then C=C1C(=O)O[C@@H](CCCCCCCC)[C@@H]1C(=O)O [C-75] + Nc1ncn([C@H]2C[C@H](O)[C@@H](CO)O2)c(=O)n1 [Decitabine] (partner 2 µM) , what is it?
Result: 0.401

Request: And then C=C1C(=O)O[C@@H](CCCCCCCC)[C@@H]1C(=O)O [C-75] + CS(=O)(=O)N1CCN(Cc2cc3nc(-c4cccc5[nH]ncc45)nc(N4CCOCC4)c3s2)CC1 [Pictilisib] (partner 1 µM) , what is it?
Result: 0.272

* * *

Test system: NCI-H23
Experiment: relative viability (nuclei count vs DMSO), 5 days (fraction); higher = more cells survive
Conditions: first compound 0.8 µM
For each of the molecules below, state its relative viability.
Reply with the value as a number alone.

Request: Enter reported relative viability observed with NCI-H23 for C=C1C(=O)O[C@@H](CCCCCCCC)[C@@H]1C(=O)O [C-75] + NC(=O)Nc1cc(-c2cccc(F)c2)sc1C(=O)N[C@H]1CCCNC1 [AZD7762] (partner 0.2 µM)
Result: 0.263

Request: And then C=C1C(=O)O[C@@H](CCCCCCCC)[C@@H]1C(=O)O [C-75] + COc1cccc2cc(-c3nc([C@H]4CC[C@H](C(=O)O)CC4)n4ncnc(N)c34)[nH]c12 [OSI-027] (partner 0.5 µM) , what is it?
Result: 0.575

Request: And then Oc1nc(-c2ccc(C(F)(F)F)cc2)nc2c1CSCC2 [XAV939] + Cc1nc(Nc2ncc(C(=O)Nc3c(C)cccc3Cl)s2)cc(N2CCN(CCO)CC2)n1 [Dasatinib] (partner 0.075 µM) , what is it?
Result: 0.895

Request: And then Oc1nc(-c2ccc(C(F)(F)F)cc2)nc2c1CSCC2 [XAV939] + NC(=O)Nc1cc(-c2cccc(F)c2)sc1C(=O)N[C@H]1CCCNC1 [AZD7762] (partner 0.2 µM) , what is it?
Result: 0.195

* * *

System: NCI-H1666
Test: relative viability (nuclei count vs DMSO), 5 days (fraction); higher = more cells survive
Conditions: first compound 0.1265 µM
observed-property: relative viability

Request: GET /values?readout=relative viability&item= O=C(O)c1ccc(-c2c[nH]c3ncc(-c4ccccc4)cc23)cc1C1CCCC1 + Cc1nc(NC(=O)N2CCC[C@H]2C(N)=O)sc1-c1ccnc(C(C)(C)C(F)(F)F)c1 [Alpelisib] (partner 2 µM)
Result: 0.897

Request: And then O=C(O)c1ccc(-c2c[nH]c3ncc(-c4ccccc4)cc23)cc1C1CCCC1 + CC1(C)CCC(c2ccc(Cl)cc2)=C(CN2CCN(c3ccc(C(=O)NS(=O)(=O)c4ccc(N[C@H](CCN5CCOCC5)CSc5ccccc5)c(S(=O)(=O)C(F)(F)F)c4)cc3)CC2)C1 [Navitoclax] (partner 0.5 µM) , what is it?
Result: 1.01

Request: And then O=C(O)c1ccc(-c2c[nH]c3ncc(-c4ccccc4)cc23)cc1C1CCCC1 + Cc1cc(Nc2cc(N3CCN(C)CC3)nc(Sc3ccc(NC(=O)C4CC4)cc3)n2)n[nH]1 [Tozasertib] (partner 0.1 µM) , what is it?
Result: 0.587

Request: And then O=C(O)c1ccc(-c2c[nH]c3ncc(-c4ccccc4)cc23)cc1C1CCCC1 + Cc1nc(Nc2ncc(C(=O)Nc3c(C)cccc3Cl)s2)cc(N2CCN(CCO)CC2)n1 [Dasatinib] (partner 0.075 µM) , what is it?
Result: 0.928

Request: And then O=C(O)c1ccc(-c2c[nH]c3ncc(-c4ccccc4)cc23)cc1C1CCCC1 + COc1cc2c(Oc3ccc(NC(=O)C4(C(=O)Nc5ccc(F)cc5)CC4)cc3F)ccnc2cc1OCCCN1CCOCC1 [Foretinib] (partner 0.25 µM) , what is it?
Result: 0.959

Request: And then O=C(O)c1ccc(-c2c[nH]c3ncc(-c4ccccc4)cc23)cc1C1CCCC1 + CC(C)C[C@H](NC(=O)[C@H](Cc1ccccc1)NC(=O)c1cnccn1)B(O)O [Bortezomib] (partner 0.002 µM) , what is it?
Result: 0.813

Request: And then O=C(O)c1ccc(-c2c[nH]c3ncc(-c4ccccc4)cc23)cc1C1CCCC1 + CC(=O)Nc1cccc(-n2c(=O)n(C3CC3)c(=O)c3c(Nc4ccc(I)cc4F)n(C)c(=O)c(C)c32)c1 [Trametinib] (partner 0.02 µM) , what is it?
Result: 0.809

Request: And then O=C(O)c1ccc(-c2c[nH]c3ncc(-c4ccccc4)cc23)cc1C1CCCC1 + COc1cccc2cc(-c3nc([C@H]4CC[C@H](C(=O)O)CC4)n4ncnc(N)c34)[nH]c12 [OSI-027] (partner 0.5 µM) , what is it?
Result: 0.884

Request: And then O=C(O)c1ccc(-c2c[nH]c3ncc(-c4ccccc4)cc23)cc1C1CCCC1 + N=C(N)NC(=N)NCCc1ccccc1 [Phenformin] (partner 250 µM) , what is it?
Result: 0.552

Data provenance is the supplement of paper PMC10307832.
